Would you mind telling me the reported IC50 of each entry?
tested on: L1210; experiment: Cytotoxicity in L1210 cell lines; type: functional, cell-based; settings: Mus musculus
Give bare numbers, in µM.

[
  {
    "COMPOUND": "Cl.Cl.NCCCCCCCCNCc1c2ccccc2cc2ccccc12",
    "UOM": "µM",
    "RESULT NUMBER": 3
  },
  {
    "COMPOUND": "Cl.NC1CCC(NCCCCNCc2c3ccccc3cc3ccccc23)CC1 (centres undefined)",
    "UOM": "µM",
    "RESULT NUMBER": 1
  },
  {
    "COMPOUND": "Cl.Cl.NCCOCCOCCNCc1c2ccccc2cc2ccccc12",
    "UOM": "µM",
    "RESULT NUMBER": 11.3
  }
]

Continue with the next compound.
### Prompt Please give measured IC50 of the following entry: Cl.NCC(O)CNCCCCNCc1c2ccccc2cc2ccccc12 (centres undefined)
### Response 1.5
